- measured.target: glucose-6-phosphate dehydrogenase-6-phosphogluconolactonase (Plasmodium falciparum 3D7)
- procedure.summary: PfG6PD enzyme inhibitors, kinetic NADPH readout, dose response, orthogonal assay, biochemical, kinetic NADPH detection (AID 540269)
- conditions.used: purified PfG6PD-6PGL
The source made the active and inactive calls. The rule behind the calls is not given here.
Readings of IC50 for the listed compounds

Take a look at these entries with their results.
>  <compound>
O=C(Nc1ccccc1C(=O)N/N=C/c1ccco1)c1ccccc1Cl

>  <quantity>
IC50

>  <result>
> 80 µM (inactive)

$$$$
>  <compound>
Cc1cnc(C=NNC(N)=S)c2cccc(N)c12

>  <quantity>
IC50

>  <result>
> 80 µM (inactive)

$$$$

### Prompt # get_value(readout='IC50', item= O=C1C(c2cc(=O)c3ccccc3[nH]2)=C(O)c2ccccc21 )
### Response > 80 µM (inactive)

### Prompt # get_value(readout='IC50', item= Cc1cc(N=NC(=O)c2ccccc2O)c2ccccc2c1O )
### Response > 80 µM (inactive)

### Prompt # get_value(readout='IC50', item= CN1CCc2cc(O)cc3c2[C@H]1Cc1ccc(O)c(O)c1-3 )
### Response > 80 µM (inactive)

### Prompt # get_value(readout='IC50', item= CC(C)(C)c1ccc(O)c(O)c1 )
### Response 48.6 µM

### Prompt # get_value(readout='IC50', item= Cc1ccc(S(=O)(=O)Nc2nc(C)c(C(=O)N/N=C/c3ccccc3)s2)cc1 )
### Response 31 µM

### Prompt # get_value(readout='IC50', item= CCOC(=O)c1c(C2COc3ccccc3O2)csc1NC(=O)c1ccco1 (configuration not stated) )
### Response > 80 µM (inactive)

### Prompt # get_value(readout='IC50', item= COc1cc(N=c2ssnc2Cl)c(OC)cc1Cl )
### Response 36.8 µM

### Prompt # get_value(readout='IC50', item= CCCCCCCCn1sccc1=O )
### Response 66.4 µM

### Prompt # get_value(readout='IC50', item= Cc1cccc(C(=O)Nc2sc3c(c2C(=O)O)CCCC3)c1 )
### Response 32.9 µM

### Prompt # get_value(readout='IC50', item= O=C(COC(=O)c1cnccn1)c1ccc([N+](=O)[O-])cc1 )
### Response > 80 µM (inactive)

### Prompt # get_value(readout='IC50', item= Cc1ccc(S(=O)(=O)NNc2ccccc2)cc1 )
### Response 54.1 µM

### Prompt # get_value(readout='IC50', item= COc1ccc(OC)c2c1C(=O)C(Cl)=C(Cl)C2=O )
### Response 20.3 µM

### Prompt # get_value(readout='IC50', item= CC1=C(C)CS(=O)N(S(=O)(=O)c2ccc(Cl)cc2)C1 (configuration not stated) )
### Response > 80 µM (inactive)

### Prompt # get_value(readout='IC50', item= O=C1NC(=S)NC(=O)C1=Cc1ccc(Br)s1 )
### Response > 80 µM (inactive)

### Prompt # get_value(readout='IC50', item= O=C(COc1ccccc1F)OCC(=O)c1ccc([N+](=O)[O-])cc1 )
### Response > 80 µM (inactive)

### Prompt # get_value(readout='IC50', item= COc1ccc(C(=O)ON=C2C=C(C)C(=O)C(C)=C2)cc1 )
### Response > 80 µM (inactive)

### Prompt # get_value(readout='IC50', item= Cn1c(=O)[nH]c(=O)c2c1[nH]c(=S)n2CCCc1ccccc1 )
### Response 43.7 µM

### Prompt # get_value(readout='IC50', item= Cc1c(Cl)c([N+](=O)[O-])nn1Cc1ccc(C(=O)N/N=C\c2cccc(Br)c2)o1 )
### Response > 80 µM (inactive)

### Prompt # get_value(readout='IC50', item= CC(=O)Nc1ccc2c(c1)Cc1cc(N3C(=O)C=CC3=O)ccc1-2 )
### Response 27.2 µM

### Prompt # get_value(readout='IC50', item= Cc1cccc(C2(c3cccc(C)c3)CC2C(=O)Nc2ccc([N+](=O)[O-])cc2O)c1 (configuration not stated) )
### Response > 80 µM (inactive)

Measured values drawn from PubChem BioAssay AID540269 for this set.
